Origin of values: the METLIN SMRT retention time set (Domingo-Almenara et al. 2019)

Experiment: gradient 5% acetonitrile 3 min, to 50% in 2 min, to 85% in 15 min, held 3 min, 100 µL/min
Settings: column: Zorbax Extend-C18 2.1 x 50 mm; eluents: water / acetonitrile, 0.1% formic acid
ASSAY METRIC: RP-LC retention time

Worked cases, answers included:
{"COMPOUND": "Cc1cc(OCC(=O)N[C@@H](C)C(=O)O)c2c3c(c(=O)oc2c1)CCCC3", "RP-LC retention time": "746 s"}
{"COMPOUND": "O=C(CN1C(=O)C(C(=O)N2CCCC2)Sc2ccccc21)N1CCN(c2ccccc2F)CC1 (centres undefined)", "RP-LC retention time": "859 s"}
{"COMPOUND": "CCNc1cc(N2CCCC(CCC(=O)NCCN3CCCCCC3)C2)ncn1 (centres undefined)", "RP-LC retention time": "550 s"}
{"COMPOUND": "CCOc1cccc(=O)c2c(C)n(-c3nc(-c4ccc(OC)cc4)c(C)s3)c(C)c12", "RP-LC retention time": "1160 s"}
{"COMPOUND": "O=C(Cc1ccsc1)N1CCC2(CC1)CC(N1CCCCC1)CCO2 (centres undefined)", "RP-LC retention time": "590 s"}
{"COMPOUND": "CCOC(=O)c1nc(N(C)c2ccccc2C)c2ccccc2n1", "RP-LC retention time": "916 s"}

Hi! Can you tell me RP-LC retention time for each of these compounds?
1. CCOc1ccc(NC(=O)c2cccc3ccccc23)c([N+](=O)[O-])c1
2. Cc1cc(OCC(=O)N[C@H](C(=O)O)C(C)C)c2c3c(c(=O)oc2c1)CCCC3

result:
1. 1050 s
2. 837 s

query: Please look up its RP-LC retention time: `COc1cccc(C(=O)N2CCc3nc[nH]c3C2)c1OC`
result: 555 s

----------
Assay: gradient 5% acetonitrile 3 min, to 50% in 2 min, to 85% in 15 min, held 3 min, 100 µL/min
Settings: column: Zorbax Extend-C18 2.1 x 50 mm; eluents: water / acetonitrile, 0.1% formic acid
Criterion: RP-LC retention time meeting or surpassing 900 s. Met: class 1. Not met: class 0.

Sample answers from the record:
{"COMPOUND": "CCCCNC(=O)C1CCN(c2nc3ccc(-c4cccnc4)nc3s2)CC1", "CLASS NAME": "class 0"}
{"COMPOUND": "O=C(C1CCN(S(=O)(=O)c2ccc(-c3noc(C4CC4)n3)cc2)CC1)N1CCCCCC1", "CLASS NAME": "class 1"}

Now look at this entry.
query: Form field: RP-LC retention time at least 900 s? Entry: COc1cccc(C(C#N)N2N=C(C)CC2c2ccccc2)c1O (stereo not given)
result: class 1

----------
Assay: gradient 5% acetonitrile 3 min, to 50% in 2 min, to 85% in 15 min, held 3 min, 100 µL/min
Conditions: column: Zorbax Extend-C18 2.1 x 50 mm; eluents: water / acetonitrile, 0.1% formic acid
Give RP-LC retention time for every item shown.

{"COMPOUND": "Cc1ccsc1CCNC(=O)C1CCN(S(=O)(=O)c2c(C)nn(-c3ccccc3)c2C)CC1", "RP-LC retention time": "955 s"}
{"COMPOUND": "O=C1OC(=O)C2C3CCC(O3)C12 (stereo not given)", "RP-LC retention time": "559 s"}
{"COMPOUND": "Cc1csc(-c2cc(S(=O)(=O)NCCC3=CCCCC3)cn2CC(=O)N2CCCCC2)n1", "RP-LC retention time": "1140 s"}
{"COMPOUND": "CCN1CCN(c2cc(C)c3cc(NC(=S)NCc4ccc(F)cc4Cl)ccc3n2)CC1", "RP-LC retention time": "657 s"}

Would you kindly look at the next entry?
query: What value of RP-LC retention time has been recorded for this entry: `O=C(Cc1ccc(Cl)cc1)N1CC(n2cnnc2C2CC2)C1`
result: 649 s

----------
Test: gradient 5% acetonitrile 3 min, to 50% in 2 min, to 85% in 15 min, held 3 min, 100 µL/min
Settings: column: Zorbax Extend-C18 2.1 x 50 mm; eluents: water / acetonitrile, 0.1% formic acid
I'd be grateful if you could share measured RP-LC retention time for these entries.
Numbers only, in s.

{"MOLECULE": "COCCn1cc(CC(=O)NC2CCCCC2)c2cccnc21", "ASSAY METRIC": "RP-LC retention time", "UNIT": "s", "REPORTED RESULT": 700}
{"MOLECULE": "CNC(=O)C1CC(=O)N(C2CCCCC2)C1 (stereo unspecified)", "ASSAY METRIC": "RP-LC retention time", "UNIT": "s", "REPORTED RESULT": 609}
{"MOLECULE": "O=C(C1CCC1)N1CCCC1c1nc(-c2cccc(Cl)c2)no1 (stereo unspecified)", "ASSAY METRIC": "RP-LC retention time", "UNIT": "s", "REPORTED RESULT": 1060}
{"MOLECULE": "CCC(=O)N1CCc2cc(CNS(=O)(=O)c3ccc(F)cc3)ccc21", "ASSAY METRIC": "RP-LC retention time", "UNIT": "s", "REPORTED RESULT": 838}
{"MOLECULE": "Cc1cc(N2C=NS(=O)(=O)c3cccnc32)ccc1F", "ASSAY METRIC": "RP-LC retention time", "UNIT": "s", "REPORTED RESULT": 807}

Let us examine a further case.
query: Which value of RP-LC retention time has been reported for `CCc1c(C(=O)O)nnn1-c1ccc2c(c1)OCCO2` in the records?
result: 702

----------
Experiment: gradient 5% acetonitrile 3 min, to 50% in 2 min, to 85% in 15 min, held 3 min, 100 µL/min
Details: column: Zorbax Extend-C18 2.1 x 50 mm; eluents: water / acetonitrile, 0.1% formic acid
Label criterion met for high-side RP-LC retention time (at or above 700 s) and criterion not met for low-side RP-LC retention time (below it).

query: Decide: is the reported value of RP-LC retention time for `O=C(CS(=O)(=O)c1c[nH]c2ccccc12)Nc1ccc2c(c1)OCCO2` equal to or greater than 700 s?
result: criterion not met

query: Ok, now `O=C(c1ccc2c(c1)ncn2CCN1CCCC1)N1CCN(c2ccccc2F)CC1`
result: criterion not met

query: What about `Cn1c(=O)n(C)c2cc(CNc3ccc(N4CCOCC4)c(Cl)c3)ccc21` ?
result: criterion met

----------
Test: gradient 5% acetonitrile 3 min, to 50% in 2 min, to 85% in 15 min, held 3 min, 100 µL/min
Settings: column: Zorbax Extend-C18 2.1 x 50 mm; eluents: water / acetonitrile, 0.1% formic acid
# RP-LC retention time >= 700 s gives yes (1), anything below gives no (0)

Reference set, count: 2
{"MOLECULE": "CC1CCN(C(=O)c2ccc(OCC3CCCN(C(=O)C4CCCO4)C3)cc2)CC1 (centres undefined)", "CLASS NAME": "yes (1)"}
{"MOLECULE": "Cc1ccc(NC(=O)N2CCC(C(C)C(=O)Nc3cc(C)cc(C)c3)CC2)cc1 (centres undefined)", "CLASS NAME": "yes (1)"}

query: Please tell me: is the molecule `COc1ccccc1NS(=O)(=O)c1cc(N)ccc1N1CCCCC1` at or over 700 s in terms of RP-LC retention time?
result: yes (1)

query: Request: `CC(C)c1nncn1C1CCN(S(=O)(=O)Cc2cccc(Cl)c2)CC1`
result: yes (1)

query: Would you mind doing `CC1CCN(c2nc(=O)n(CC(=O)Nc3ccc4c(c3)OCCO4)c3ccccc23)CC1` as well?
result: yes (1)

----------
Test: gradient 5% acetonitrile 3 min, to 50% in 2 min, to 85% in 15 min, held 3 min, 100 µL/min
Settings: column: Zorbax Extend-C18 2.1 x 50 mm; eluents: water / acetonitrile, 0.1% formic acid
Would you mind telling me the reported RP-LC retention time of each entry?
Answers are plain numbers, in s.

// known answers, use as guide
{"COMPOUND": "Cc1ccc(NC(=O)N2CCC(n3cnc4ccc(Cl)cc4c3=O)CC2)cc1C", "UNIT": "s", "RP-LC retention time": 913}
{"COMPOUND": "Cc1cc(-c2ccc(S(=O)(=O)N3CCN(c4ccccn4)CC3)s2)n[nH]1", "UNIT": "s", "RP-LC retention time": 623}
{"COMPOUND": "COc1cc2c(cc1CNC(=O)Cn1cc(C(=O)C(C)C)c3ccccc31)OCCCO2", "UNIT": "s", "RP-LC retention time": 893}
{"COMPOUND": "O=C(Cn1cnc2nc3c(cc2c1=O)CCCC3)N1CCN(c2cccc(C(F)(F)F)c2)CC1", "UNIT": "s", "RP-LC retention time": 881}
{"COMPOUND": "CNC(=O)C1CCCN(c2nc3ncn(CC(=O)Nc4cccc(C(F)(F)F)c4)c(=O)c3s2)C1 (centres undefined)", "UNIT": "s", "RP-LC retention time": 704}

Each compound below has a recorded value; state its RP-LC retention time.
1. COc1ccc(NC(=O)N2CCC(c3nc(C(=O)N(C)C)c(C)o3)CC2)cc1
2. Cc1[nH]c(C(=O)N2CCC(CC(=O)NCCCN3CCN(c4ccc(F)cc4)CC3)CC2)c(C)c1C

result:
1: 676; 2: 675

# per-item lookup of RP-LC retention time; items listed below
1. O=C(c1cn(-c2cc(-c3nc(C4CC4)no3)ccn2)cn1)N1CCCC1
2. O=C1[C@H]2CN(Cc3cc(Cl)ccc3F)C[C@H]2C(=O)N1CCN1CCc2ccccc2C1

result:
767
684
